Listed here are molecules together with their documented cytotoxicity at 10 µM.
protocol: Toxicity liver stage against HepG2, at 10uM
Format: cell-based
Design: test concentration 10 uM, cell line HepG2-A16-CD81EGFP
applied conditions: human, HepG2-A16-CD81EGFP cells; read-out: INHIBITION
Report as a plain number; the unit % is understood.

Completed entries (count: 4):
[[record]]
molecule = "CCNc1ncc(C(=O)N(C)Cc2nc3cc(Cl)ccc3[nH]2)cn1"
units_of_measure = "%"
reading = -44.3

[[record]]
molecule = "NC(=O)c1cccc(OCCC(=O)NC2CCc3c(F)cccc32)c1 (stereo not given)"
units_of_measure = "%"
reading = 9.86

[[record]]
molecule = "CN1CCC2(CCN(C(=O)c3ccccc3)CC2)C1"
units_of_measure = "%"
reading = -2.36

[[record]]
molecule = "Cc1cnc(-c2nc(O)c3c(n2)CN(C(=O)C2CCOC2)CC3)cn1 (stereo not given)"
units_of_measure = "%"
reading = -6.76


// lookup cytotoxicity at 10 µM for CCN1CC2(CCCCN2C(=O)C2CCCCC2)CC1=O (stereo not given)
18.3

# repeat for "CC(C)n1ccnc1C1CCN(C(=O)c2ccccc2)CC1"
-10.9

###

protocol: Toxicity liver stage against HepG2, at 10uM
Type: cell-based
Design: test concentration 10 uM, cell line HepG2-A16-CD81EGFP
applied conditions: human, HepG2-A16-CD81EGFP cells; read-out: INHIBITION
property label: cytotoxicity at 10 µM (%)
Report as a plain number; the unit % is understood.

[[record]]
compound = "CCCC1(CO)CCCN(c2ncccc2F)C1 (stereo unspecified)"
reading = -6.83

[[record]]
compound = "Cc1ccc(-n2ncc(C(=O)NC3CC(C)(C)NC(C)(C)C3)c2N)cc1"
reading = -4.2

[[record]]
compound = "COc1ccc(NC2CCCN(Cc3cnc(N(C)C)s3)C2)cc1 (stereo unspecified)"
reading = 0.88

[[record]]
compound = "N[C@@H](Cc1c[nH]cn1)C(=O)N1CCC(Oc2ccc(Cl)cc2)CC1"
reading = -2.13

[[record]]
compound = "CCCn1nccc1NC(=O)CN1CCc2cnc(CC)nc2C1"
reading = 2.31


For the next question, use this compound.
// lookup cytotoxicity at 10 µM for "CCOc1ccc(Cl)c(C(=O)N(C)C)n1"
-11.3

###

protocol: Toxicity liver stage against HepG2, at 10uM
Type: cell-based
Design: test concentration 10 uM, cell line HepG2-A16-CD81EGFP
applied conditions: human, HepG2-A16-CD81EGFP cells; read-out: INHIBITION
Listed here are molecules together with their documented cytotoxicity at 10 µM.
Report as a plain number; the unit % is understood.

[[record]]
molecule = "Cn1ncc2c1CCCC2NCc1cnc(-c2ccccc2)nc1 (stereo unspecified)"
reading = -5.43

[[record]]
molecule = "OCCN1CCCCC1c1cc[nH]n1 (stereo unspecified)"
reading = -1.71

[[record]]
molecule = "Cc1cccc(NC(=O)CNC(=O)Cn2ncc(Cl)c(Cl)c2=O)c1C"
reading = 12.7


// lookup cytotoxicity at 10 µM for "CNC(=O)C(C)(C)N1CCC[C@H]1C(=O)NC(C)(C)C"
-2.63

# repeat for N#Cc1cccc(CN2Cc3nccn3CC(CN3CCCC3)C2)c1 (stereo unspecified)
-135

# repeat for "C[C@@H]1CN(C(=O)[C@H]2CCCO2)C[C@]12CCN(c1ccsc1)C2=O"
-77.8

# repeat for "CS(=O)(=O)NCCn1ccc(-c2cccs2)n1"
1.43

# repeat for COc1cc(CN2CC(=O)N(c3ccc(C)cc3)CC2C)cc(OC)c1 (stereo unspecified)
1.28

# repeat for "Cc1cc(F)ccc1S(=O)(=O)N(C)CC(N)=O"
1.38

# repeat for "O=C(C1=CCCC1)N1C[C@H](OCc2cccnc2)[C@H]2OCCC[C@H]21"
7.86

# repeat for "CC1=C[C@@H](CC#N)[C@H](C(C)C)C[C@H]1CC(=O)N1CCN(C)CC1"
-4.42

###

Listed here are compounds together with their documented cytotoxicity at 10 µM.
protocol: Toxicity liver stage against HepG2, at 10uM
Format: cell-based
Parameters: test concentration 10 uM, cell line HepG2-A16-CD81EGFP
applied conditions: human, HepG2-A16-CD81EGFP cells; read-out: INHIBITION
Report as a plain number; the unit % is understood.

[[record]]
compound = "O=C(NCC(F)(F)F)C1CCC(=O)N(C2CCCC2)C1 (configuration not stated)"
units_of_measure = "%"
reading = -8.77

[[record]]
compound = "CS(=O)(=O)CCCN(CCc1cccc(F)c1)C1CC1"
units_of_measure = "%"
reading = -18.3

[[record]]
compound = "Cc1cc(N(C)C)nc(C2COCCN2Cc2nccn2C)n1 (configuration not stated)"
units_of_measure = "%"
reading = -3.43

[[record]]
compound = "CC(C)c1noc([C@@H]2Cc3[nH]cnc3CN2C(=O)Nc2ccccc2)n1"
units_of_measure = "%"
reading = 0.0515

[[record]]
compound = "COc1cc(C(=O)N(Cc2ccco2)C2CC2)cc(OC)c1OC"
units_of_measure = "%"
reading = 4.53

[[record]]
compound = "COc1ccccc1CNc1ccc2nncn2n1"
units_of_measure = "%"
reading = 10.4

[[record]]
compound = "NC(=O)c1cc2c(nc1CCOCc1ccccc1)CCC2"
units_of_measure = "%"
reading = 2.99

[[record]]
compound = "CN(C)C(=O)Cc1nc(CN2CCCC2Cn2cccn2)cs1 (configuration not stated)"
units_of_measure = "%"
reading = 4.79


For the next question, use this compound.
// lookup cytotoxicity at 10 µM for "CCNCCc1nc2cc(F)ccc2[nH]1"
5.18

###

protocol: Toxicity liver stage against HepG2, at 10uM
Format: cell-based
Set-up: test concentration 10 uM, cell line HepG2-A16-CD81EGFP
applied conditions: human, HepG2-A16-CD81EGFP cells; read-out: INHIBITION
property label: cytotoxicity at 10 µM (%)
Report as a plain number; the unit % is understood.

Completed entries (count: 5):
[[record]]
molecule = "CCOc1cccnc1C(=O)N1CCCN(c2nc(C)cs2)CC1"
property_label = "cytotoxicity at 10 µM"
reading = 5.6

[[record]]
molecule = "CSCCN(C)Cc1ccc(F)cc1C#N"
property_label = "cytotoxicity at 10 µM"
reading = 4.81

[[record]]
molecule = "CN(Cc1ccco1)C1CCC12CCN(C(=O)c1ccco1)CC2 (configuration not stated)"
property_label = "cytotoxicity at 10 µM"
reading = -10.9

[[record]]
molecule = "CC(C)(C)C(NC(=O)CCCS(C)(=O)=O)c1ccc(F)cc1F (configuration not stated)"
property_label = "cytotoxicity at 10 µM"
reading = 8.87

[[record]]
molecule = "Cc1ncnc2c1CCN(Cc1cccs1)CC2"
property_label = "cytotoxicity at 10 µM"
reading = 1.17


// lookup cytotoxicity at 10 µM for CC(O)CN1CCC(CNCc2ccccc2F)CC1 (configuration not stated)
-11.4

# repeat for CCOCC(O)CN1CCN(C(=O)c2ccc(N(C)C)nc2)CC1 (configuration not stated)
-5.18

# repeat for "CCO[C@@H]1CC[C@H]2[C@H]1OCCN2C(=O)C1CCOCC1"
-19.8

# repeat for Cc1nccn1-c1nccnc1C1CCCN(C)C1 (configuration not stated)
2.2

# repeat for CN(C)CC1(O)CCN(S(=O)(=O)c2ccc(F)c(F)c2)C1 (configuration not stated)
-0.954

# repeat for "CN(Cc1ccco1)[C@@H]1CN(Cc2cccnc2)C[C@@H]2CCCO[C@@H]21"
8.49

# repeat for "COC(=O)c1ccc(N(C(=O)c2cc(Cl)ccn2)C(C)C)c(C)c1"
7.51

###

Listed here are molecules together with their documented cytotoxicity at 10 µM.
protocol: Toxicity liver stage against HepG2, at 10uM
Assay type: cell-based
Design: test concentration 10 uM, cell line HepG2-A16-CD81EGFP
applied conditions: human, HepG2-A16-CD81EGFP cells; read-out: INHIBITION
Report as a plain number; the unit % is understood.

Completed entries (count: 10):
[[record]]
molecule = "O=C(O)c1cccn1-c1ccc2c(c1)OCCO2"
property_label = "cytotoxicity at 10 µM"
units_of_measure = "%"
reading = -7.48

[[record]]
molecule = "Cc1cc(N(C)C)nc(C2(C)CCCN2C(=O)c2ccn(C)n2)n1 (centres undefined)"
property_label = "cytotoxicity at 10 µM"
units_of_measure = "%"
reading = -1.06

[[record]]
molecule = "CC(C)Oc1ccc(CNC(=O)CCN2C(=O)CCC2=O)cc1F"
property_label = "cytotoxicity at 10 µM"
units_of_measure = "%"
reading = -7.27

[[record]]
molecule = "Cc1ccc2c(c1)N(C(=O)c1nccnc1N)CC(C)O2 (centres undefined)"
property_label = "cytotoxicity at 10 µM"
units_of_measure = "%"
reading = -1.65

[[record]]
molecule = "O=C(c1ccc2c(c1)CCCC2)N1CCOCC1c1ncon1 (centres undefined)"
property_label = "cytotoxicity at 10 µM"
units_of_measure = "%"
reading = -7

[[record]]
molecule = "NCCn1nc(C2CCN(Cc3ccccc3)C2)c2nccnc21 (centres undefined)"
property_label = "cytotoxicity at 10 µM"
units_of_measure = "%"
reading = 0.975

[[record]]
molecule = "NC(=O)CN1CCCN(C(=O)Cc2ccc3c(c2)OCO3)CC1"
property_label = "cytotoxicity at 10 µM"
units_of_measure = "%"
reading = 2.96

[[record]]
molecule = "NC(=O)c1ccc(=O)n(Cc2cc(Br)ccc2Cl)n1"
property_label = "cytotoxicity at 10 µM"
units_of_measure = "%"
reading = 4.71

[[record]]
molecule = "CCn1ccnc1CN1CCCn2nc(CNC(=O)C3CCC3)cc2C1"
property_label = "cytotoxicity at 10 µM"
units_of_measure = "%"
reading = -7.79

[[record]]
molecule = "Cc1ccc(CN(C)C(=O)CNC(=O)N2CCc3ccccc3C2)o1"
property_label = "cytotoxicity at 10 µM"
units_of_measure = "%"
reading = 5.95


// lookup cytotoxicity at 10 µM for Cc1nn(C)c2nc(N(Cc3ccccn3)CC3CCCO3)sc12 (centres undefined)
-1.01

# repeat for COC(=O)C1CN(Cc2nc(C(C)(C)C)cs2)C[C@@H](C)O1 (some centres undefined)
-8.22

# repeat for "CC(C)c1ncc2c(n1)CN(Cc1nc(Cc3ccccc3)no1)CC2"
-14.6

# repeat for CCc1ccc(C2COCCN2C(=O)Nc2ccc(C#N)cc2)o1 (centres undefined)
-0.0554

# repeat for O=c1c2ccccc2nc2n1C(CSc1ccc(Cl)cc1Cl)CN2 (centres undefined)
6.01

# repeat for CCC(CC)C(=O)NC1CCCc2nc(N3CCOCC3)ncc21 (centres undefined)
4.99

This collection of values is drawn from ChEMBL document CHEMBL4513216.
